- System: Alopecurus myosuroides (ALOMY)
- assay.summary: Example B pre-emergence herbicidal activity, glasshouse pot test
- Type: in vivo
- run.parameters: 312 h, rate 1000 g/ha, evaluated after 13 days, read-out: herbicidal damage ALOMY (100=total damage to plant; 0=no damage to plant)
observed.property: pest or weed control at 1000 g/ha (%)
State just the number; it will be interpreted in %.

Look over these answered cases.
{"compound": "Cc1ccc(-c2ccc(Cl)cc2)cc1C1=C(O)CC(CC2OCCO2)CC1=O (centres unmarked)", "unit.name": "%", "pest or weed control at 1000 g/ha": 20}
{"compound": "CCC1(CC)COC(CC2CC(=O)C(c3cc(-c4ccc(Cl)cc4)ccc3C)=C(O)C2)OC1 (centres unmarked)", "unit.name": "%", "pest or weed control at 1000 g/ha": 40}
{"compound": "Cc1ccc(-c2ccc(Cl)cc2)cc1C1=C(O)CC(CC2OCCCO2)CC1=O (centres unmarked)", "unit.name": "%", "pest or weed control at 1000 g/ha": 0}
{"compound": "Cc1ccc(-c2ccc(Cl)cc2)cc1C1=C(O)CC(CC2OCC3(CCOCC3)O2)CC1=O (centres unmarked)", "unit.name": "%", "pest or weed control at 1000 g/ha": 20}
{"compound": "Cc1ccc(-c2ccc(Cl)cc2)cc1C1=C(O)CC(CC2O[C@H]3COC[C@H]3O2)CC1=O (some centres unmarked)", "unit.name": "%", "pest or weed control at 1000 g/ha": 0}
{"compound": "Cc1ccc(-c2ccc(OC(F)(F)F)cc2)cc1C1=C(O)CC(CC2CCOCC2)CC1=O (centres unmarked)", "unit.name": "%", "pest or weed control at 1000 g/ha": 20}

Ask: Item Cc1ccc(-c2ccc(Cl)cc2)cc1C1=C(O)CC(CC2OCC(C)(C)CO2)CC1=O (centres unmarked) has what recorded pest or weed control at 1000 g/ha?
Result: 20

Ask: Okay, and Cc1ccc(-c2ccc(F)cc2)cc1C1=C(O)CC(CC2CCOCC2)CC1=O (centres unmarked) ?
Result: 0

Ask: Okay, and Cc1ccc(-c2cc(C)c(C3=C(O)CC(CC4CCOCC4)CC3=O)c(C)c2)cc1 (centres unmarked) ?
Result: 60

Ask: Okay, and Cc1ccc(-c2ccc(Cl)cc2)cc1C1=C(O)CC(CC2OCC3(CC3)CO2)CC1=O (centres unmarked) ?
Result: 20

Ask: Okay, and Cc1cc(-c2ccc(C)c(C3=C(O)CC(CC4CCOCC4)CC3=O)c2)ccc1F (centres unmarked) ?
Result: 0

Ask: Okay, and Cc1ccc(-c2cccnc2OCC2CC2)cc1C1=C(O)CC(CC2CCOCC2)CC1=O (centres unmarked) ?
Result: 0

====

Some compounds, each annotated with its measured pest or weed control at 1000 g/ha.
- Tested on: Avena fatua (AVEFA)
- assay.summary: Example B pre-emergence herbicidal activity, glasshouse pot test
- Type: in vivo
- run.parameters: 312 h, rate 1000 g/ha, evaluated after 13 days, read-out: herbicidal damage AVEFA (100=total damage to plant; 0=no damage to plant)
State just the number; it will be interpreted in %.

{"compound": "Cc1ccc(-c2ccc(Cl)cc2)cc1C1=C(O)CC(CC2OCCCO2)CC1=O (stereo not drawn) [Compound A-55]", "observed.property": "pest or weed control at 1000 g/ha", "unit.name": "%", "test.value": 20}
{"compound": "Cc1ccc(-c2ccc(Cl)cc2)cc1C1=C(O)CC(CC2OCC(C)(C)CO2)CC1=O (stereo not drawn) [Compound A-56]", "observed.property": "pest or weed control at 1000 g/ha", "unit.name": "%", "test.value": 0}

Ask: Item Cc1cc(-c2ccc(C(F)(F)F)cc2)cc(C)c1C1=C(O)CC(CC2CCOCC2)CC1=O (stereo not drawn) [Compound A-38] has what recorded pest or weed control at 1000 g/ha?
Result: 20

Ask: Okay, and Cc1ccc(-c2ccc3c(c2)OCCO3)cc1C1=C(O)CC(CC2CCOCC2)CC1=O (stereo not drawn) [Compound A-54] ?
Result: 10

Ask: Okay, and Cc1ccc(-c2ccc(Cl)cc2)cc1C1=C(O)CC(CC2OCCCCO2)CC1=O (stereo not drawn) [Compound A-62] ?
Result: 0

Ask: Okay, and CCc1ccccc1C1=C(O)CC(CC2CCOCC2)CC1=O (stereo not drawn) [Compound A-31] ?
Result: 40

Ask: Okay, and Cc1cc(-c2ccc(C)c(C3=C(O)CC(CC4CCOCC4)CC3=O)c2)ccc1F (stereo not drawn) [Compound A-48] ?
Result: 0

Ask: Okay, and Cc1ccc(-c2ccc(Cl)cc2)cc1C1=C(O)CC(CC2OCCO2)CC1=O (stereo not drawn) [Compound A-46] ?
Result: 40
